Origin of measurements: patent US20250250230A1

Documented OX2R agonist activity (3 μM, %) across a set of compounds
Biological target: human orexin type 2 receptor (Homo sapiens)
Construct: expressed in transfected cells
Sequence (O43614 whole entry): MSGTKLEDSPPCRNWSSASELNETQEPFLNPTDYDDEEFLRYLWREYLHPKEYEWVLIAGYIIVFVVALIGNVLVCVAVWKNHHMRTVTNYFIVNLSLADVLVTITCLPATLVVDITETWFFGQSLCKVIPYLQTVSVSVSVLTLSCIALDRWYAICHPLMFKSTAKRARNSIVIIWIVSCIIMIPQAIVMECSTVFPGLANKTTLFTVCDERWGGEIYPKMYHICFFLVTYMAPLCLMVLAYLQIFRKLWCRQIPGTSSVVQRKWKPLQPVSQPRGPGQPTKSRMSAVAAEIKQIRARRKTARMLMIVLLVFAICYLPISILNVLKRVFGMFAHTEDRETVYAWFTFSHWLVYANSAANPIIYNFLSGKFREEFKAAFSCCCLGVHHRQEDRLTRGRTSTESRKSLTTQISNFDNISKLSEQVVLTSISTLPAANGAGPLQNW
Test: Measurement of orexin type 2 receptor agonist activity (calcium fluorescence, Fluo-4 AM, FDSS)
Assay type: cell-based
Conditions: test compound 3 μM; CHO cells expressing human OX2 receptor; DMSO = 0%, orexin A (human) = 100%
Numeric answer only, unit % assumed.

>  <COMPOUND>
CS(=O)(=O)N[C@H]1CCN(C(=O)C2CC2c2c(-c3c(F)cccc3F)csc2F)C1 (stereo partly shown) [Example 368]

>  <ASSAY METRIC>
OX2R agonist activity (3 μM, %)

>  <QUANTITATIVE READOUT>
97

$$$$
>  <COMPOUND>
CC1(C(=O)N2CC(NS(C)(=O)=O)C(F)(F)C2)CC1c1ccccc1-c1c(F)cccc1F (stereo not shown) [Example 248]

>  <ASSAY METRIC>
OX2R agonist activity (3 μM, %)

>  <QUANTITATIVE READOUT>
98

$$$$
>  <COMPOUND>
CS(=O)(=O)NC1CCCN(C(=O)C2CC2c2ccc(F)cc2-c2ccccc2)CC1 (racemic) [Example 87]

>  <ASSAY METRIC>
OX2R agonist activity (3 μM, %)

>  <QUANTITATIVE READOUT>
81

$$$$

Exam item: Can you look up the measured OX2R agonist activity (3 μM, %) of CC1(NS(C)(=O)=O)CN(C(=O)[C@@H]2C[C@@]2(F)c2ccccc2-c2c(F)cccc2F)CC1(F)F (stereo partly shown) [Example 375] for me?
Marked response: 92

Exam item: What would you report for CCS(=O)(=O)NC(C)[C@H]1CCN1C(=O)[C@@H]1C[C@H]1c1ccccc1-c1c(F)cccc1F (stereo partly shown) [Example 361] ?
Marked response: 90

Exam item: What would you report for CC(NS(C)(=O)=O)[C@@H]1[C@H](C)CN1C(=O)[C@@H]1C[C@@]1(F)c1ccccc1-c1c(F)cccc1F (stereo partly shown) [Example 401] ?
Marked response: 79

Exam item: What would you report for CS(=O)(=O)NC1CCN(C(=O)C2CC2c2ccccc2-c2cccc(F)c2F)C1 (racemic) [Example 81] ?
Marked response: 70

###

Molecular target: human orexin type 2 receptor (Homo sapiens)
Construct: expressed in transfected cells
Assay: Measurement of orexin type 2 receptor agonist activity (calcium fluorescence, Fluo-4 AM, FDSS)
Type: cell-based
Conditions: test compound 3 μM; CHO cells expressing human OX2 receptor; DMSO = 0%, orexin A (human) = 100%
ASSAY METRIC: OX2R agonist activity (3 μM, %)
Numeric answer only, unit % assumed.

Here's what some known entries look like.
>  <COMPOUND>
CS(=O)(=O)NC1CCCN(C(=O)C2CC2c2ccccc2-c2ccccc2F)CC1 (racemic)

>  <ASSAY METRIC>
OX2R agonist activity (3 μM, %)

>  <ENDPOINT UNIT>
%

>  <QUANTITATIVE READOUT>
80

$$$$
>  <COMPOUND>
CS(=O)(=O)N[C@@H]1CN(C(=O)C2CC2c2ccccc2-c2c(F)cccc2F)CCC1(F)F (stereo partly shown)

>  <ASSAY METRIC>
OX2R agonist activity (3 μM, %)

>  <ENDPOINT UNIT>
%

>  <QUANTITATIVE READOUT>
98

$$$$
>  <COMPOUND>
Cc1ccc([C@]2(F)C[C@H]2C(=O)N2C[C@@H](F)[C@H]2CNS(C)(=O)=O)c(-c2c(F)cccc2F)c1

>  <ASSAY METRIC>
OX2R agonist activity (3 μM, %)

>  <ENDPOINT UNIT>
%

>  <QUANTITATIVE READOUT>
95

$$$$

Exam item: Can you look up the measured OX2R agonist activity (3 μM, %) of CC1(C(=O)N2CCC[C@H](NS(C)(=O)=O)CC2)CC1c1ccccc1-c1c(F)cccc1F (stereo partly shown) for me?
Marked response: 78

Exam item: What would you report for CS(=O)(=O)NC[C@@H]1CCN1C(=O)C1(CO)CC1c1ccc(F)cc1-c1c(F)cccc1F (stereo partly shown) ?
Marked response: 96

Exam item: What would you report for CS(=O)(=O)NC1CCCN(C(=O)C2CC2c2ccccc2-c2ccccc2F)C1 (racemic) ?
Marked response: 81

Exam item: What would you report for CS(=O)(=O)NC1CCCN(C(=O)C2CC2c2ccccc2-c2ccccc2Cl)C1 (racemic) ?
Marked response: 84
